- assaySystem: PSE-2 (Pseudomonas aeruginosa, UniProt P14489)
- Sequence (P14489 20-266): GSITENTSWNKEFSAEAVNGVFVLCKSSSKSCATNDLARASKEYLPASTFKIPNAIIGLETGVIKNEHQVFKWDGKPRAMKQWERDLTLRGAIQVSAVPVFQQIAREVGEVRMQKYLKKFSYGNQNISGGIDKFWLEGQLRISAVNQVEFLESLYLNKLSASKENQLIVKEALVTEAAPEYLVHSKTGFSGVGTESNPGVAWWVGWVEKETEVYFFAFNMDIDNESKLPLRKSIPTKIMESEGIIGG
- protocolSummary: Competitive assay with nitrocefin (RSAI)
- Type: biochemical, Ps.aerug. 1973E
- Set-up: Normally, therefore, the beta-lactamase has to be extracted from the cells for the purpose of the present invention; endogenous in cells
Classification field: condition met = RSAI at or over 20; condition not met = RSAI under 20.

Recorded results for 5 molecules are shown here.
| molecule | group |
| --- | --- |
| CO[C@@]1(NC(=O)Cc2cccs2)C(=O)N2C(C(=O)O)=C(COC(N)=O)CS[C@@H]21 [Cefoxi-tin, cefoxitin] | condition met |
| CO/N=C(\C(=O)N[C@@H]1C(=O)N2C(C(=O)O)=C(CSc3nc(=O)c(=O)[nH]n3C)CS[C@H]12)c1csc(N)n1 [RO-13 9904] | condition not met |
| CC1(C)S[C@@H]2[C@H](NC(=O)Cc3ccccc3)C(=O)N2[C@H]1C(=O)O [Peni-cillin G, Penicillin G] | condition not met |
| CCN1CCN(C(=O)N[C@@H](C(=O)N[C@@H]2C(=O)N3C(C(=O)O)=C(CSc4nnnn4C)CS[C@H]23)c2ccc(O)cc2)C(=O)C1=O [Cefopera-zone, cefoperazone] | condition not met |
| CO/N=C(\C(=O)N[C@@H]1C(=O)N2C(C(=O)O)=CCS[C@H]12)c1csc(N)n1 [Cefti-zoxime, ceftizoxime] | condition met |

Input line: Determine whether this molecule has RSAI no lower than 20: O=C(Cc1cccs1)N[C@@H]1C(=O)N2C(C(=O)[O-])=C(C[n+]3ccccc3)CS[C@H]12 [Cephalo-ridine, cephaloridine]
Output line: condition met
